Some compounds, each annotated with its measured pKi.
tested-target: Carbonic anhydrase 9 (Homo sapiens, UniProt Q16790)
pKi: −log10 of the molar value.
parameter: pKi

> print(dat)
                            compound.string  parameter  result
1  CC1(C)OB(c2ccc(C(=O)Nc3ccc(S(N)(=O)=O)cc3)cc2)OC1(C)C        pKi    7.28
2  CC1(C)OB(c2ccc(N/C(S)=N/c3ccc(S(N)(=O)=O)cc3F)cc2)OC1(C)C        pKi    8.00
3  CC1(C)OB(c2ccc(N/C(S)=N/c3ccc(S(N)(=O)=O)cc3Cl)cc2)OC1(C)C        pKi    7.09
4  CC1(C)OB(c2ccc(C(=O)NCCc3ccc(S(N)(=O)=O)cc3)cc2)OC1(C)C        pKi    7.38
5  CC1(C)OB(c2ccc(NC(=S)Nc3ccc(S(N)(=O)=O)cc3Br)cc2)OC1(C)C        pKi    7.05
6  CC1(C)OB(c2ccc(NC(=S)Nc3ccc(S(=O)(=O)Nc4nnc(S(N)(=O)=O)s4)cc3)cc2)OC1(C)C        pKi    8.14
